- test target: human MCT1 (Homo sapiens, UniProt P53985)
- Sequence (P53985 whole entry): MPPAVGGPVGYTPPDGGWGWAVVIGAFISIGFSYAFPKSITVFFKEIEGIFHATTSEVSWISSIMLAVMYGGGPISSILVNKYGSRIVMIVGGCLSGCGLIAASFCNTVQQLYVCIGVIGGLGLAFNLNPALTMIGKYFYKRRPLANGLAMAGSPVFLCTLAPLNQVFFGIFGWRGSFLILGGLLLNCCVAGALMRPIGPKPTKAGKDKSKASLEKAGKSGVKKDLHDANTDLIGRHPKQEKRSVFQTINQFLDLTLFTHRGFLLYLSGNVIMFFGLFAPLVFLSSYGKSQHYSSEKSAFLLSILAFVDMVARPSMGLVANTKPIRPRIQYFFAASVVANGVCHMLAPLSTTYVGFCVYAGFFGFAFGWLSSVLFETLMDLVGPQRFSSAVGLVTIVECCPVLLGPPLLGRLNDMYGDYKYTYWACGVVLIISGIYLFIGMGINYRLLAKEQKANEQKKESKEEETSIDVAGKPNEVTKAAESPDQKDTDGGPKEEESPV
- Sequence (P35613 140-385 partner limits assumed): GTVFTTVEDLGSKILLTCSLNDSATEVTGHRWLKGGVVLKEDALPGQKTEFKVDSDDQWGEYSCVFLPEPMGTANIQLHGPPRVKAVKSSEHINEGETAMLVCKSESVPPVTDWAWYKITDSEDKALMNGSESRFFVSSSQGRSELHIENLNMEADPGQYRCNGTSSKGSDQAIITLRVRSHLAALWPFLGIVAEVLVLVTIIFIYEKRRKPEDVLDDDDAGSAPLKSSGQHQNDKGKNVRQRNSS
- assay notes: MCT1 Transport Inhibition Assay
- assay setup: MDCK-II cells overexpressing human MCT1 (with CD147), TPGA transport, LC-MS/MS; read-out: BioIVT MCT1 Transporter IC50
pIC50: −log10 of the molar value.
Below, each entry is listed with its recorded pIC50.

Consider the following illustrative entries.
{"cpd smiles": "O=C(Nc1ccccc1C(=O)O)c1cc(S(=O)(=O)c2ccccc2)ccc1Cl", "test target": "human MCT1 (Homo sapiens, UniProt P53985)", "reading": "6.82 to 7.30"}
{"cpd smiles": "CCNS(=O)(=O)c1cc(Nc2ccc(CC)nn2)ccc1-c1cnc([C@H]2CC[C@H](NC(=O)OC(C)C)CC2)s1", "test target": "human MCT1 (Homo sapiens, UniProt P53985)", "reading": "6.82 to 7.30"}

Below: the item to evaluate.
Exam item: Output pIC50 of Cc1[nH]nc(C(F)(F)F)c1Cc1sc2c(c1C(=O)N1C[C@](C)(O)CO1)c(=O)n(C)c(=O)n2C(C)C
Marked response: 6.82 to 7.30

All values here come from patent US20250268869A1.
